Test system: MDA-MB-231
Protocol: Antiproliferative activity against human MDA-MB-231 cells after 24 hrs by MTT assay
Format: functional, cell-based
Measurement setup: MDA-MB-231, 24 h
Measured quantity: IC50 (µM)

{"Smiles structure": "COc1ccc(/C=C/C(=O)c2cc(-c3ccc(OC)c(OC)c3)n3nc(-c4ccccc4)cc3n2)cc1", "Units symbol": "µM", "IC50": 22}
{"Smiles structure": "COc1ccc(-c2cc(C(=O)/C=C/c3ccccc3)nc3cc(-c4ccccc4)nn23)cc1OC", "Units symbol": "µM", "IC50": 23.3}
{"Smiles structure": "COc1ccc(/C=C/C(=O)c2cc(-c3cc(OC)c(OC)c(OC)c3)n3nc(-c4ccccc4)cc3n2)cc1", "Units symbol": "µM", "IC50": 16.5}
